- Test system: VCAM-1
- assay.protocol: VCAM-1 assay with ELISA readout (Examples 5-6)
- Assay type: cell-based
- experimental.context: TNF added with compound, incubated overnight (approximately 16 hours)
hey, just use Yes if measured IC50 is less than 20 µM, otherwise No

Qu. Find out if reported IC50 for CC(C)(C)c1cc(SCc2ccc(C(=O)O)cc2)cc(C(C)(C)C)c1O is less than 20 µM
Ans. No

---
Qu. Find out if reported IC50 for CC(=O)OC(C)(C)CSc1cc(C(C)(C)C)c(O)c(C(C)(C)C)c1 is less than 20 µM
Ans. No

Qu. Find out if reported IC50 for CC(C)(C)c1cc(SCCc2ccc([N+](=O)[O-])cc2)cc(C(C)(C)C)c1O is less than 20 µM
Ans. Yes

Qu. Find out if reported IC50 for CC(C)(Sc1cc(C(C)(C)C)c(O)c(C(C)(C)C)c1)Sc1cc(C(C)(C)C)c(OCCCCN)c(C(C)(C)C)c1 is less than 20 µM
Ans. Yes

Qu. Find out if reported IC50 for COc1c(C(C)(C)C)cc(SCc2ccc(C(F)(F)F)cc2)cc1C(C)(C)C is less than 20 µM
Ans. No

Qu. Find out if reported IC50 for CC(C)(C)c1cc(SCc2ccc(CC(=O)O)cc2)cc(C(C)(C)C)c1O is less than 20 µM
Ans. No

Qu. Find out if reported IC50 for CC(C)(C)c1cc(SCc2ccc([N+](=O)[O-])cc2)cc(C(C)(C)C)c1O is less than 20 µM
Ans. Yes
